Tested on: SR leukemia
Test: NCI-60 one-dose screen, 48 h (100 = growth as untreated, 0 = no growth, -100 = all killed)
Conditions: 10 µM unless noted
This is part of a sample that, as a whole, favours compounds with a hit. Of some 83,000 tested, about 20% had one in any assay.
Please note: label 1 applies when growth is 20% or greater, and label 0 applies otherwise.

Known results for compounds:
CCOC(=O)c1c(CN2CCN(C)CC2)nc2ccc(Cl)cc2c1-c1ccccc1: label 0
CC1=C[C@H]2c3c(c(O)c(O)c4oc(-c5ccccc5)cc(=O)c34)[C@H](c3cc(O)c(O)c4oc(-c5ccccc5)cc(=O)c34)[C@H]2C(C)(C)C1: label 0
Cn1cc(C(=O)c2nc(-c3c[nH]c4ccc(F)cc34)no2)c2cc(F)ccc21: label 1
COc1cc(C(=O)Oc2ccccc2OC(=O)c2cc(OC)c(OC)c(OC)c2)cc(OC)c1OC: label 1
O=C1c2cc3c(cc2-c2c1c1ccc(F)cc1c(=O)n2C[C@H](O)[C@H](O)[C@H](O)CO)OCO3: label 0
Nc1nc2ccc3[nH]ncc3c2c2c1CCCC2: label 0
CC(=O)Nc1ccc(S(=O)(=O)Nc2cccc(-c3nc(-c4ccc(NC(=O)c5cccnc5)cc4Cl)no3)c2)cc1: label 0
COc1ccc(-c2nc3cc(C(=O)Nc4cc(OC)c(OC)c(OC)c4)ccc3n2C2CCCCC2)cc1: label 1
COc1cc(-c2nc3cc(Cl)c(Cl)cc3[nH]2)ccc1OCC(=O)N=Nc1c(O)[nH]c2ccccc12: label 0
O=C(N(c1ccccc1)c1ccccc1)n1ccc2nc(Cl)nc(Cl)c21: label 1

Evaluate c1csc(C2=NN3C(C2)c2ccccc2OC3c2ccncc2)c1 (stereo unspecified) : growth at minimum 20%? label 1

Evaluate `CCOC(=O)c1sc2nc(-c3cccc(OC)c3)nc(N3CCOCC3)c2c1C` : growth at minimum 20%? label 1

Evaluate `CCOC(=O)c1c(C)oc2ncnc(N3CCN(C(=S)Nc4ccccc4)CC3)c12` : growth at minimum 20%? label 1

###

Tested on: NCI/ADR-RES ovarian
Assay: NCI-60 one-dose screen, 48 h
Conditions: 10 µM unless noted
The panel holds about 83,000 compounds, 20% with a hit somewhere; the sample as a whole holds those more often. Active and inactive are the calls of the source. How the source made its calls: active means growth percent below 10; inactive means the rest.
// one of y (active), n (inactive), no free text

Cc1ccc2c(C(C[N+](=O)[O-])c3ccco3)c(-c3ccccc3)[nH]c2c1 (stereo not drawn): y

What classification did `CSc1ccc(-c2n[nH]nc2-c2cc3ccccc3s2)cc1` end up with in this test? n

What classification did `CCc1c(Nc2ccccc2C)nc(N)[nH]c1=O` end up with in this test? n

###

System: NCI-H226 lung
Assay: NCI-60 one-dose screen, 48 h
Conditions: 10 µM unless noted
This is part of a sample that, as a whole, favours compounds with a hit. Of some 83,000 tested, about 20% had one in any assay. The source made the active and inactive calls. How the source made its calls: active means growth percent below 10; inactive means the rest.
// one of YES = active, NO = inactive, no free text

COc1ccc(S(=O)(=O)N2CC3(COC3)C2)cc1NC(=O)c1[nH]c(C)c2c1CCCCC2=O: NO
COc1ccc(-n2nc(C)c3c(Nc4ccc(NC(=O)Nc5cccc(C(F)(F)F)c5)cc4)ncnc32)cc1: NO
O=C1CC[C@H](c2ccc(O)c3c2C(=O)[C@@H]2O[C@@H]2C3=O)c2cccc(O)c21: YES
N=C(N)c1ccc(-c2ccc(-c3ccc4ccccc4c3)s2)s1: NO
Cc1cc(C)c2nc3nc(C)cc(C)c3c(N)c2c1: NO
Cc1cc(N2CCN(C)CC2)nc(NC2CCCC(Nc3ccnc4cc(Cl)ccc34)C2)n1 (stereo not drawn): YES
N#Cc1c(-c2ccc(Cl)cc2)nc(NN=Cc2ccco2)nc1N1CCOCC1: NO

What classification did `COc1ccc(-c2nc3ccc(-c4nc5ccc(N6CCN(c7ccncc7)CC6)cc5[nH]4)cc3[nH]2)cc1OC` end up with in this test? NO
